# subject of test: human TRPC3 ion channel (Homo sapiens (Human))
# Sequence (Q13507 whole entry): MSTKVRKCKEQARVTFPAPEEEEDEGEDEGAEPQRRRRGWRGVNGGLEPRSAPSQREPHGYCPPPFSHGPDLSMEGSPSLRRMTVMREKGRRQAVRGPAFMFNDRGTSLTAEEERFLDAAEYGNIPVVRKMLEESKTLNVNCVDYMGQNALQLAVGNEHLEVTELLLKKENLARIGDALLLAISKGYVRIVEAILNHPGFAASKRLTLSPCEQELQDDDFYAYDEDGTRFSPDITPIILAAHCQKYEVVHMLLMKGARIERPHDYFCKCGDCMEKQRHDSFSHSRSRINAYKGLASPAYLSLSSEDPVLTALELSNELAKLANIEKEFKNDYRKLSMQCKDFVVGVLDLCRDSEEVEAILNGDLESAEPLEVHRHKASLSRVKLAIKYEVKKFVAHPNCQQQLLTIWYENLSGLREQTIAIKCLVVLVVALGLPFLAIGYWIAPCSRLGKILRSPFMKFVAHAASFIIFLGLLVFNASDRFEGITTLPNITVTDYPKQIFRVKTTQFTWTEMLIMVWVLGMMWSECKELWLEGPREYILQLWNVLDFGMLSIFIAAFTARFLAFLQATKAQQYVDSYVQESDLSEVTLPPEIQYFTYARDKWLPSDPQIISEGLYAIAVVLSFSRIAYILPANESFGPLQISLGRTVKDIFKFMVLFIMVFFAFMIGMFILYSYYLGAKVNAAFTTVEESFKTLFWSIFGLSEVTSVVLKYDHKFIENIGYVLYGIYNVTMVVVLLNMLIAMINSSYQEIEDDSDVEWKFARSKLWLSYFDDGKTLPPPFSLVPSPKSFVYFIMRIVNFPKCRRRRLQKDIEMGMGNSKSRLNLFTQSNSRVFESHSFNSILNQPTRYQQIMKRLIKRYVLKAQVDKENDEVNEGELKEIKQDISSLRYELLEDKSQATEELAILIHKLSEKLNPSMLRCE
# method description: Inhibition of TRPC3 FLIPR Assay (membrane potential dye, OAG challenge)
# measurement setup: TRPC3 transfected AD293 cells, OAG at EC80; most potent isolated isomer; mean of minimum 2 experiments
Flag rule - IC50 less than 20 nM flags Satisfied; the remaining entries get Not satisfied.

molecule	classification
N#Cc1cnc(OC2CC(c3ccc(F)cc3)CC2N2CCCC(N)C2)cn1 (stereo not shown)	Not satisfied
N#Cc1ccc(OC2CC(c3ccc(F)cc3)CC2N2CCC(F)(F)C(N)C2)cc1 (stereo not shown)	Not satisfied
N#Cc1ccc(OC2CC(c3cccc(F)c3)CC2N2CCCC(N)C2)c(Cl)c1 (stereo not shown)	Not satisfied
N#Cc1ccc(OC2CC(c3ccc(F)cc3)CC2N2CCCC(N)C2)cn1 (stereo not shown)	Not satisfied
NC1CC(F)CN(C2CC(c3ccc(F)cc3)CC2n2cccn2)C1 (stereo not shown)	Satisfied
N#Cc1cn(C2CC(c3ccc(F)cc3)CC2N2CCCC(N)C2)nn1 (stereo not shown)	Satisfied
NC1CCCN(C2CC(c3ccc(F)cc3)CC2n2nccn2)C1 (stereo not shown)	Satisfied
N#Cc1cnn(C2CC(c3ccc(F)cc3)CC2N2CC(N)CC(F)C2)c1 (stereo not shown)	Satisfied
NC1CCCN(C2CC(c3ccc(F)cc3)CC2Oc2cccnn2)C1 (stereo not shown)	Not satisfied
N#Cc1ccc(OC2CC(c3ccc(F)c(O)c3)CC2N2CCCC(N)C2)cc1 (stereo not shown)	Not satisfied
NC1CCCN(C2CC(c3ccc(F)cc3)CC2Oc2nnccc2Cl)C1 (stereo not shown)	Satisfied
N#Cc1ncn(C2CC(c3ccc(F)cc3)CC2N2CCCC(N)C2)n1 (stereo not shown)	Satisfied
N#Cc1ccccc1OC1CC(c2ccccc2)CC1N1CCCC(N)C1 (stereo not shown)	Not satisfied
N#Cc1ncc(OC2CC(c3ccc(F)cc3)CC2N2CCCC(N)C2)cn1 (stereo not shown)	Not satisfied
N#Cc1ccc(OC2CC(c3ccc(F)cc3)CC2N2CCCC(N)C2)cc1F (stereo not shown)	Not satisfied
N[C@@H]1C[C@@H](F)CN([C@@H]2C[C@H](c3ccc(F)cc3)C[C@H]2n2cncn2)C1	Satisfied
NC1CC(F)CN(C2CC(c3ccc(F)cc3)CC2n2ncnn2)C1 (stereo not shown)	Satisfied
Cc1cc(C#N)nnc1OC1CC(c2ccc(F)cc2)CC1N1CC(N)CC(F)C1 (stereo not shown)	Not satisfied
COc1cc(C2CC(Oc3ccc(C#N)cc3)C(N3CCCC(N)C3)C2)ccc1F (stereo not shown)	Not satisfied
